All figures here come from paper PMC6225228.

- System: Staphylococcus aureus CCM 4516/08
- MEASUREMENT_DESCRIPTION: Antibacterial microdilution broth, SA
- Assay type: cell-based
- TEST_SETTINGS: Staphylococcus aureus, CCM4516, 48 h, read-out: MIC SA, 48 h
Entries and their measured MIC follow.

The examples below pair each entry with its known result.
                           structure_smiles  recorded_value
0                O=C(Nc1cnccn1)c1cccc(Cl)c1        > 125 µM
1          O=C(Nc1cnccn1)c1cccc(C(F)(F)F)c1        > 125 µM
2                COc1ccc(C(=O)Nc2cnccn2)cc1        > 500 µM
3                 O=C(Nc1cnccn1)c1cccc(O)c1        > 500 µM
4  O=C(c1ccc(Cl)cc1)N(C(=O)c1ccc(Cl)cc1)c1cnccn1        > 125 µM
5              COc1ccccc1C(=O)Nc1cncc(Cl)n1        > 500 µM
6            O=C(Nc1cncc(Cl)n1)c1cccc(Cl)c1        > 125 µM
7            O=C(Nc1cnc(Cl)cn1)c1ccc(Br)cc1        > 125 µM
8                 Cc1ccc(C(=O)Nc2cnccn2)cc1        > 500 µM
9                O=C(Nc1cnccn1)c1ccc(Cl)cc1        > 125 µM

Request: Would you mind telling me what MIC value was observed for O=C(Nc1cnc(Cl)cn1)c1cccc(O)c1 ?
Response: 500 µM

Request: Fill in the blank: the reported MIC of O=C(Nc1cnccn1)c1ccccc1 is ____.
Response: > 500 µM

Request: Please give the measured MIC for this compound: COc1cccc(C(=O)Nc2cnccn2)c1
Response: > 500 µM

Request: Value lookup for MIC; key = CCc1ccc(C(=O)Nc2cnccn2)cc1
Response: > 500 µM

Request: Look up MIC for this compound: O=C(Nc1cncc(Cl)n1)c1ccccc1Cl
Response: > 500 µM

Request: Return reported MIC; argument: O=C(Nc1cnc(Cl)cn1)c1ccccc1
Response: 250 µM

Request: So what does the record say about MIC for O=C(Nc1cnc(Cl)cn1)c1ccccc1O ?
Response: 15.6 µM

Request: Using the record for O=C(Nc1cnc(Cl)cn1)c1ccc(Cl)cc1 , report its MIC.
Response: > 125 µM

Request: Given the compound COc1cccc(C(=O)Nc2cnc(Cl)cn2)c1 , what is its reported MIC?
Response: 31.2 µM

Request: Dear colleague, I am looking for the recorded MIC of the following compound: CC(=O)Oc1cccc(C(=O)Nc2cnccn2)c1
Response: > 500 µM
